target: aldose reductase (Bos taurus, UniProt P16116); construct: preparation of the enzyme from bovine lens; from tissue; host or cells: bovine lens; assay: In vitro aldose reductase inhibition (modified Hayman and Kinoshita procedure; enzyme from bovine lens); type: biochemical; conditions: read-out: % Inhibition IN VITRO 10^-7 M
endpoint label: inhibition at 0.1 µM (%)

[[record]]
molecule = "N#Cc1c(SCc2ccccc2)nc(C2CCCCC2)n(CC(=O)O)c1=O [Example 2]"
endpoint_label = "inhibition at 0.1 µM"
assay_result = 91

[[record]]
molecule = "N#Cc1c(SCC2CCCCC2)nc(C2CCCCC2)n(CC(=O)O)c1=O [Example 7]"
endpoint_label = "inhibition at 0.1 µM"
assay_result = 90

[[record]]
molecule = "CC(C)Sc1nc(C(C)C)n(CC(=O)O)c(=O)c1C#N [Example 9]"
endpoint_label = "inhibition at 0.1 µM"
assay_result = 91

